B1: TTC32 (parent)
chain: YSAYIRRCACAASSDESPGSKCSP

Variants of: B1
experiment summary: protein stability index of a GFP-peptide fusion (GPS, HEK-293T) (PSI 1-6); higher = more stable;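 note: lentivirally expressed fusions sorted by FACS into six bins by GFP to DsRed ratio, PSI derived from sequencing read proportions per bin multiplied by bin number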
condition info: c terminus: a fixed tail appended
The entries below are paired with their reported protein stability index.
property measured: protein stability index

>>> assay_result("D15N")
1.65
>>> assay_result("G19S")
1.51
>>> assay_result("I5P")
2.24
>>> assay_result("K21M")
3.54
>>> assay_result("A9F")
1.76
>>> assay_result("C22I")
1.85
>>> assay_result("A9V")
2.17
>>> assay_result("E16A")
1.44
>>> assay_result("S2G")
2.37
>>> assay_result("A3W")
2.19
>>> assay_result("C8V")
2.67
>>> assay_result("P18C")
2.28
>>> assay_result("G19R")
2.04
>>> assay_result("A3C")
2.02
>>> assay_result("S17C")
2.29
>>> assay_result("R6V")
1.74
>>> assay_result("D15C")
2.03
>>> assay_result("Y4R")
2.67
>>> assay_result("I5L")
2.12
>>> assay_result("S2V")
2.52
>>> assay_result("G19H")
2.24
>>> assay_result("A11V")
2.61
>>> assay_result("S14F")
1.45
>>> assay_result("D15K")
1.81
>>> assay_result("K21F")
2.22
>>> assay_result("A11C")
2.06
>>> assay_result("S23M")
1.61
>>> assay_result("C10P")
2.88
>>> assay_result("I5G")
2.09
>>> assay_result("Y1C")
2.04
>>> assay_result("D15Y")
2.38
>>> assay_result("A3T")
2.16
>>> assay_result("P24Y")
1.54
>>> assay_result("D15H")
2.37
>>> assay_result("E16P")
2.01
>>> assay_result("S14Y")
1.88
>>> assay_result("S23D")
2.46
